Target: human recombinant core 2 β1,6-GlcNAc-transferase (C2GnT1) (Homo sapiens, UniProt Q02742)
Sequence (Q02742 33-428 limits assumed): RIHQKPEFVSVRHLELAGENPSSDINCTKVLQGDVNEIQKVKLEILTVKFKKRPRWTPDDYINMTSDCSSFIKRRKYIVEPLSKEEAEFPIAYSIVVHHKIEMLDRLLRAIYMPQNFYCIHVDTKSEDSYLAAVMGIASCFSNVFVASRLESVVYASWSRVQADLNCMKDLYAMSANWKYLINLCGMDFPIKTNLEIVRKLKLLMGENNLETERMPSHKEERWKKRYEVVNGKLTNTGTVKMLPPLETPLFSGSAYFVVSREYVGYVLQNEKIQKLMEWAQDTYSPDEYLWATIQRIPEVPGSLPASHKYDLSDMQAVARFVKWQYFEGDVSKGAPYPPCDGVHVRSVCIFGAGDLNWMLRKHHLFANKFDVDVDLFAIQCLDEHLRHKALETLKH
Assay: C2GnT1 glycosyltransferase assay
Format: biochemical
Conditions: acceptor substrate 0.5 mM; 0.5 mM Galβ1–3GalNAcα-pnp set to 100%
Reported C2GnT1 activity (%) values are given for each entry in this list.

compound	result
CC(=O)N[C@H]1[C@@H](OCc2ccccc2)O[C@H](CO)[C@H](O)[C@@H]1O[C@@H]1O[C@H](CO)[C@H](O)[C@H](O)[C@H]1O [Galβ1–3GalNAcα-Bn]	64%
CC(=O)N[C@H]1[C@@H](OCc2ccccc2)O[C@H](CO)C[C@@H]1O[C@@H]1O[C@H](CO)[C@H](O)[C@H](O)[C@H]1O [Galβ1–3(4-deoxy)GalNAcα-Bn]	<1%

Would you kindly look at the next entry?
Task item: Quote C2GnT1 activity (%) with test system human recombinant core 2 β1,6-GlcNAc-transferase (C2GnT1) (Homo sapiens, UniProt Q02742) for CC(=O)N[C@H]1[C@@H](OCc2ccccc2)O[C@H](C)[C@H](O)[C@@H]1O[C@@H]1O[C@H](CO)[C@H](O)[C@H](O)[C@H]1O [Galβ1–3(6-deoxy)GalNAcα-Bn]
Reply: <1%

Data origin: paper PMC4002258
